- targetSystem: Fuc(a1-2)[Gal(a1-3)]Gal(b1-4)GlcNAc(b1-2)Man(a1-3)[Fuc(a1-2)[Gal(a1-3)]Gal(b1-4)GlcNAc(b1-2)Man(a1-6)]Man(b1-4)GlcNAc(b1-4)GlcNAc
- experimentSummary: glycan array binding signal (z-score within array); higher = stronger binding
- conditionSummary: glycan notation: IUPAC condensed, linker removed
Many of the other results were omitted from the sample, so the strongest signals are more common in it than they were.
Listed here: items and their measured glycan array binding signal (z-score).
quantityKind: glycan array binding signal (z-score)

1) Clec12b (Mus musculus), Q149M0 (protein) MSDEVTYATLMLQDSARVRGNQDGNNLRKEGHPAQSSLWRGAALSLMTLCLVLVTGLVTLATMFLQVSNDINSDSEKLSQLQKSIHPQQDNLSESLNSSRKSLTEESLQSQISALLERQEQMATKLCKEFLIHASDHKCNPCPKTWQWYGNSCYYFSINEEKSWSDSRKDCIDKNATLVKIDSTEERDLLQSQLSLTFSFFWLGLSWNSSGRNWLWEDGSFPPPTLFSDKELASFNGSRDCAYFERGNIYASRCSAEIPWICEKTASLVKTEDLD
0.853
2) EEA (Euonymus europaeus) (protein) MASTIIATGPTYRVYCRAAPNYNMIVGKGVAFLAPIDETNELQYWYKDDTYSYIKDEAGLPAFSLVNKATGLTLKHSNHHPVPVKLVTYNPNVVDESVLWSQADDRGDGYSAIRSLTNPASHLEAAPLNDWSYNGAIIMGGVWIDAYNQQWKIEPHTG
11.4
3) Gal-9-hFc (Mus musculus), O08573-2 (protein) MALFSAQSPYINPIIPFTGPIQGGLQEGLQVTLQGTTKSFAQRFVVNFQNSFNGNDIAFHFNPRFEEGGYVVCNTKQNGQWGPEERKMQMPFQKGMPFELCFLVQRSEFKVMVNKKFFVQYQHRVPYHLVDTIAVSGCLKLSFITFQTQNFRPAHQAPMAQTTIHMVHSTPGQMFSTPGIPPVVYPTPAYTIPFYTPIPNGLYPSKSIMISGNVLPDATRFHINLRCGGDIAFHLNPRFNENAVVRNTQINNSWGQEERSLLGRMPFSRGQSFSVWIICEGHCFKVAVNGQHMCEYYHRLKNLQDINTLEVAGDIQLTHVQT
1.3
